Test: In vitro half life at pH 7.4 and 37 degrees C
Format: ADME
Details: buffer
attribute measured: half-life (min)

Field: example entries. Status: answers known.
compound: Cc1cccc(C)c1OCC(=O)N[C@@H](Cc1ccccc1)[C@H](OC(=O)CCC(=O)NCc1ccccn1)C(=O)N1CSC(C)(C)[C@H]1C(=O)NC(C)(C)C.Cl
half-life (min): 48.5
//
compound: Cc1cccc(C)c1OCC(=O)N[C@@H](Cc1ccccc1)[C@H](OC(=O)CCC(=O)NCCN)C(=O)N1CSC(C)(C)[C@H]1C(=O)NC(C)(C)C.Cl
half-life (min): 12.7
//
compound: CCCNC(=O)CCC(=O)O[C@H](C(=O)N1CSC(C)(C)[C@H]1C(=O)NC(C)(C)C)[C@H](Cc1ccccc1)NC(=O)COc1c(C)cccc1C
half-life (min): 922

(1) Cc1cccc(C)c1OCC(=O)N[C@@H](Cc1ccccc1)[C@H](OC(=O)CCCC(=O)NCCN)C(=O)N1CSC(C)(C)[C@H]1C(=O)NC(C)(C)C.Cl
(2) Cc1cccc(C)c1OCC(=O)N[C@@H](Cc1ccccc1)[C@H](OC(=O)CCC(=O)NCCN1CCCCC1)C(=O)N1CSC(C)(C)[C@H]1C(=O)NC(C)(C)C.Cl
(3) Cc1cccc(C)c1OCC(=O)N[C@@H](Cc1ccccc1)[C@H](OC(=O)CCC(=O)NCc1cccnc1)C(=O)N1CSC(C)(C)[C@H]1C(=O)NC(C)(C)C.Cl
## Input Put the compounds in ascending order of half-life. Give me the labels in the order the question wants.
## Output 2, 3, 1
(2: 3.6 min, 3: 35.4 min, 1: 1240 min)

----------
Experiment: Bioavailability
Format: ADME, organism-based
Conditions: eutheria, in vivo
attribute measured: bioavailability (%)

compound: Cc1cccc(C)c1OCC(=O)N[C@@H](Cc1ccccc1)[C@H](OC(=O)CCC(=O)NCCN)C(=O)N1CSC(C)(C)[C@H]1C(=O)NC(C)(C)C.Cl
bioavailability, %: 17.5

(P) Cc1cccc(C)c1OCC(=O)N[C@@H](Cc1ccccc1)[C@H](O)C(=O)N1CSC(C)(C)[C@H]1C(=O)NC(C)(C)C
(Q) Cc1cccc(C)c1OCC(=O)N[C@@H](Cc1ccccc1)[C@H](OC(=O)CCCC(=O)NCCN1CCOCC1)C(=O)N1CSC(C)(C)[C@H]1C(=O)NC(C)(C)C.Cl
## Input Which record shows the lower bioavailability: the first, P , or the second, Q ? Give the label under which the chosen entry appears.
## Output Q
(Q: 5.4%, P: 15.8%)

----------
Assay: T max was determined
Type: ADME
attribute measured: Tmax (min)

Field: example entries. Status: answers known.
compound: Cc1cccc(C)c1OCC(=O)N[C@@H](Cc1ccccc1)[C@H](OC(=O)CCC(=O)NCc1cccnc1)C(=O)N1CSC(C)(C)[C@H]1C(=O)NC(C)(C)C.Cl
reading unit: min
Tmax: 30
--
compound: Cc1cccc(C)c1OCC(=O)N[C@@H](Cc1ccccc1)[C@H](OC(=O)CCC(=O)NCc1ccncc1)C(=O)N1CSC(C)(C)[C@H]1C(=O)NC(C)(C)C.Cl
reading unit: min
Tmax: 30
--
compound: Cc1cccc(C)c1OCC(=O)N[C@@H](Cc1ccccc1)[C@H](OC(=O)CCC(=O)NCCN)C(=O)N1CSC(C)(C)[C@H]1C(=O)NC(C)(C)C.Cl
reading unit: min
Tmax: 240
--
compound: Cc1cccc(C)c1OCC(=O)N[C@@H](Cc1ccccc1)[C@H](OC(=O)CCCC(=O)NCCN1CCOCC1)C(=O)N1CSC(C)(C)[C@H]1C(=O)NC(C)(C)C.Cl
reading unit: min
Tmax: 30
--
compound: Cc1cccc(C)c1OCC(=O)N[C@@H](Cc1ccccc1)[C@H](OC(=O)CCC(=O)NCCCN1CCOCC1)C(=O)N1CSC(C)(C)[C@H]1C(=O)NC(C)(C)C.Cl
reading unit: min
Tmax: 30

(P) Cc1cccc(C)c1OCC(=O)N[C@@H](Cc1ccccc1)[C@H](OC(=O)CCCC(=O)NCCN)C(=O)N1CSC(C)(C)[C@H]1C(=O)NC(C)(C)C.Cl
(Q) Cc1cccc(C)c1OCC(=O)N[C@@H](Cc1ccccc1)[C@H](O)C(=O)N1CSC(C)(C)[C@H]1C(=O)NC(C)(C)C
## Input Which record shows the lower Tmax: the first, P , or the second, Q ? Give the label under which the chosen entry appears.
## Output Q

(P) Cc1cccc(C)c1OCC(=O)N[C@@H](Cc1ccccc1)[C@H](OC(=O)CCC(=O)NCCN1CCCC1)C(=O)N1CSC(C)(C)[C@H]1C(=O)NC(C)(C)C.Cl
(Q) Cc1cccc(C)c1OCC(=O)N[C@@H](Cc1ccccc1)[C@H](OC(=O)CCC(=O)NCCN1CCOCC1)C(=O)N1CSC(C)(C)[C@H]1C(=O)NC(C)(C)C.Cl
## Input Which record shows the lower Tmax: the first, P , or the second, Q ? Give the label under which the chosen entry appears.
## Output P
